tested on: HIV; assay: MT4 assay: antiviral HIV activity (cell protection, cell titer glo readout at 96 hours); format: cell-based; settings: Human immunodeficiency virus 1, MT4, 96 h, MT4 cells, cell titer glo readout at 96 hours, 10 point dose response; read-out: HIV MT4 Assay IC50

| compound | unit_symbol | IC50 |
| --- | --- | --- |
| Cc1nc2c(cc(CN3CCCN(C4COC4)CC3)n2C)c(-c2cc(F)c3c(c2C)CCCO3)c1[C@H](OC(C)(C)C)C(=O)O | µM | 0.171 |
| Cc1nc2c(cc(-c3cncc(-c4ccc5c(cnn5C)c4)c3)n2C)c(-c2cc(F)c3c(c2C)CCCO3)c1[C@H](OC(C)(C)C)C(=O)O | µM | 0.0015 |
| Cc1nc2c(cc(-c3nnc(N4CCN(C5CCOCC5)CC4)o3)n2C)c(-c2cc(F)c3c(c2C)CCCO3)c1[C@H](OC(C)C)C(=O)O | µM | 0.16 |
| Cc1nc2c(cc(CCc3ccccc3)n2C)c(-c2cc(F)c3c(c2C)CCCO3)c1[C@H](OC(C)(C)C)C(=O)O (atropisomer, axis not shown; (M)) | µM | 0.0568 |
| Cc1nc2c(cc(C(=O)N3CCN(c4ccccc4)CC3)n2C)c(-c2cc(F)c3c(c2C)CCCO3)c1[C@H](OC(C)(C)C)C(=O)O | µM | 0.0059 |
| Cc1nc2c(cc(-c3ccnc(N4C[C@H]5CC[C@@H]4C5)c3)n2C)c(-c2cc(F)c3c(c2C)CCCO3)c1[C@H](OC(C)(C)C)C(=O)O (atropisomer, axis not shown) | µM | 0.0148 |
| Cc1nc2c(cc(C(=O)NCCc3cccnc3)n2C)c(-c2cc(F)c3c(c2C)CCCO3)c1[C@H](OC(C)(C)C)C(=O)O | µM | 0.103 |
| Cc1nc2c(cc(-c3nnc(N4CCC5(CCCCC5)CC4)o3)n2C)c(-c2cc(F)c3c(c2C)CCCO3)c1[C@H](OC(C)(C)C)C(=O)O | µM | 0.0135 |
| Cc1nc2c(cc(C(=O)NCc3ccccc3)n2C)c(-c2cc(F)c3c(c2C)CCCO3)c1[C@H](OC(C)(C)C)C(=O)O | µM | 0.0094 |
| Cc1nc2c(cc(-c3nsc(N4CCN(C)CC4)n3)n2C)c(-c2cc(F)c3c(c2C)CCCO3)c1[C@H](OC(C)(C)C)C(=O)O | µM | 0.0084 |
| Cc1nc2c(cc(CN3CCC[C@H]3C(=O)Nc3ccc4c(cnn4C)c3)n2C)c(-c2cc(F)c3c(c2C)CCCO3)c1[C@H](OC(C)(C)C)C(=O)O | µM | 0.0413 |
| Cc1nc2c(cc(C(=O)NCc3c(F)cccc3F)n2C)c(-c2cc(F)c3c(c2C)CCCO3)c1[C@H](OC(C)(C)C)C(=O)O | µM | 0.0038 |
